Source listed as patent US9273075B2.

- assay name: Thermodynamic Equilibrium Aqueous Solubility Assay
- Assay type: physicochemical
- condition summary: potassium phosphate buffer, pH 6.5, aqueous buffer, thermodynamic from solid; read-out: Solubility (mg/mL) pH 6.5
property measured: solubility at 24 h (mg/mL)
Give just the number in mg/mL; leave the unit off.

Input line: # input compound: `COC(=O)[C@@H](N)CSNC(=O)[C@@H](CCC(F)(F)F)[C@@H](CCC(F)(F)F)C(=O)N[C@H]1N=C(c2ccccc2)c2ccccc2N(C)C1=O` ; wanted: its solubility at 24 h
Output line: 0.02

Input line: I would be grateful if you could share the reported solubility at 24 h for `C[C@H](N)C(=O)OCN1C(=O)[C@@H](NC(=O)[C@H](CCC(F)(F)F)[C@H](CCC(F)(F)F)C(N)=O)N=C(c2ccccc2)c2ccccc21` .
Output line: 3.2

Input line: Suppose we examine the compound `N[C@@H](CSNC(=O)[C@@H](CCC(F)(F)F)[C@@H](CCC(F)(F)F)C(=O)N[C@H]1N=C(c2ccccc2)c2ccccc2NC1=O)C(=O)O` ; what solubility at 24 h value has been reported?
Output line: 0.64

* * *

- assay name: Thermodynamic Equilibrium Aqueous Solubility Assay
- Format: physicochemical
- condition summary: sodium acetate buffer, pH 4, aqueous buffer, thermodynamic from solid; read-out: Solubility (mg/mL) pH 4.0
As shown below, each of these compounds has a reported solubility at 24 h value.

CN1C(=O)[C@@H](NC(=O)[C@H](CCC(F)(F)F)[C@H](CCC(F)(F)F)C(=O)NCN2CCCC2)N=C(c2ccccc2)c2ccccc21 [Example 22]: > 0.39 mg/mL
CC(C)(N)C(=O)OCN1C(=O)[C@@H](NC(=O)[C@H](CCC(F)(F)F)[C@H](CCC(F)(F)F)C(N)=O)N=C(c2ccccc2)c2ccccc21 [Example 4]: > 3.23 mg/mL
NC(=O)[C@@H](CCC(F)(F)F)[C@@H](CCC(F)(F)F)C(=O)N[C@H]1N=C(c2ccccc2)c2ccccc2N(COC(=O)C2(N)CC2)C1=O [Example 7]: 1.78 mg/mL
CN1C(=O)[C@@H](NC(=O)[C@H](CCC(F)(F)F)[C@H](CCC(F)(F)F)C(=O)NSC[C@H](N)C(=O)O)N=C(c2ccccc2)c2ccccc21 [Example 12]: 0.82 mg/mL

Input line: Look up solubility at 24 h: Cc1cc(C)c(C(C)(C)CC(=O)OCN2C(=O)[C@@H](NC(=O)[C@H](CCC(F)(F)F)[C@H](CCC(F)(F)F)C(N)=O)N=C(c3ccccc3)c3ccccc32)c(OP(=O)(O)O)c1 [Example 3]
Output line: > 0.28 mg/mL

Input line: I have this compound here, C[C@H](N)C(=O)OCN1C(=O)[C@@H](NC(=O)[C@H](CCC(F)(F)F)[C@H](CCC(F)(F)F)C(N)=O)N=C(c2ccccc2)c2ccccc21 [Example 5] , and I need its recorded solubility at 24 h.
Output line: 2.3 mg/mL

* * *

- assay name: Thermodynamic Equilibrium Aqueous Solubility Assay
- Format: physicochemical
- condition summary: sodium acetate buffer, pH 4, aqueous buffer, thermodynamic from solid; read-out: Solubility (mg/mL) pH 4.0
property measured: solubility at 24 h (mg/mL)
Give the value in mg/mL but do not write mg/mL after it.

As a guide, the following entries are already answered.
NC(=O)[C@@H](CCC(F)(F)F)[C@@H](CCC(F)(F)F)C(=O)N[C@H]1N=C(c2ccccc2)c2ccccc2N(COC(=O)c2ccc(COP(=O)(O)O)cc2)C1=O: 0.99
NC(=O)[C@@H](CCC(F)(F)F)[C@@H](CCC(F)(F)F)C(=O)N[C@H]1N=C(c2ccccc2)c2ccccc2N(COC(=O)Cc2ccc(OP(=O)(O)O)cc2)C1=O: 0.01
CN1C(=O)[C@@H](NC(=O)[C@H](CCC(F)(F)F)[C@H](CCC(F)(F)F)C(=O)NCN2CCC(N(C)C)CC2)N=C(c2ccccc2)c2ccccc21: 0.29
CN1C(=O)[C@@H](NC(=O)[C@H](CCC(F)(F)F)[C@H](CCC(F)(F)F)C(=O)NCN2CCC(O)CC2)N=C(c2ccccc2)c2ccccc21: 0.97

Field: next compound
Input line: Give the measured solubility at 24 h of `N[C@@H](CSNC(=O)[C@@H](CCC(F)(F)F)[C@@H](CCC(F)(F)F)C(=O)N[C@H]1N=C(c2ccccc2)c2ccccc2NC1=O)C(=O)O` .
Output line: 0.75

* * *

- assay name: Solution Stability Assay
- Format: physicochemical
- condition summary: potassium phosphate buffer with 30% acetonitrile, pH 6.5; read-out: Stability (t1/2, h) pH 6.5 (converted)
property measured: half-life

NC(=O)[C@@H](CCC(F)(F)F)[C@@H](CCC(F)(F)F)C(=O)N[C@H]1N=C(c2ccccc2)c2ccccc2N(COC(=O)c2ccc(COP(=O)(O)O)cc2)C1=O: > 500 h
CN1C(=O)[C@@H](NC(=O)[C@H](CCC(F)(F)F)[C@H](CCC(F)(F)F)C(=O)NSC[C@H](N)C(=O)O)N=C(c2ccccc2)c2ccccc21: 251 h
CN1C(=O)[C@@H](NC(=O)[C@H](CCC(F)(F)F)[C@H](CCC(F)(F)F)C(=O)NCN2CCC(O)CC2)N=C(c2ccccc2)c2ccccc21: 56 h

Input line: Given the entry `CN(C)CCSNC(=O)[C@@H](CCC(F)(F)F)[C@@H](CCC(F)(F)F)C(=O)N[C@H]1N=C(c2ccccc2)c2ccccc2N(C)C1=O` , report its measured half-life.
Output line: 108 h

Input line: # query: half-life of entry `CN1C(=O)[C@@H](NC(=O)[C@H](CCC(F)(F)F)[C@H](CCC(F)(F)F)C(=O)NCN2CCCCC2)N=C(c2ccccc2)c2ccccc21`
Output line: 16 h

Input line: So what does the record say about half-life for `CN1C(=O)[C@@H](NC(=O)[C@H](CCC(F)(F)F)[C@H](CCC(F)(F)F)C(=O)NCN2CCCC2)N=C(c2ccccc2)c2ccccc21` ?
Output line: 7 h

Input line: Would you mind telling me what half-life value was observed for `COC(=O)[C@@H](N)CSNC(=O)[C@@H](CCC(F)(F)F)[C@@H](CCC(F)(F)F)C(=O)N[C@H]1N=C(c2ccccc2)c2ccccc2N(C)C1=O` ?
Output line: 44 h

Input line: Item `CN1C(=O)[C@@H](NC(=O)[C@H](CCC(F)(F)F)[C@H](CCC(F)(F)F)C(=O)NCN2CCC(N)CC2)N=C(c2ccccc2)c2ccccc21` has what recorded half-life?
Output line: 300 h

Input line: What half-life value was documented for this molecule, `Cc1cc(C)c(C(C)(C)CC(=O)OCN2C(=O)[C@@H](NC(=O)[C@H](CCC(F)(F)F)[C@H](CCC(F)(F)F)C(N)=O)N=C(c3ccccc3)c3ccccc32)c(OP(=O)(O)O)c1` ?
Output line: > 500 h

Input line: Entry under review: CN1C(=O)[C@@H](NC(=O)[C@H](CCC(F)(F)F)[C@H](CCC(F)(F)F)C(=O)NCN2CCC(N(C)C)C2)N=C(c2ccccc2)c2ccccc21 (stereo partly shown) . Reported half-life?
Output line: 376 h

Input line: Quick one: half-life of `NCCSNC(=O)[C@@H](CCC(F)(F)F)[C@@H](CCC(F)(F)F)C(=O)N[C@H]1N=C(c2ccccc2)c2ccccc2NC1=O` ?
Output line: 334 h

Input line: I would be grateful if you could share the reported half-life for `NC(=O)[C@@H](CCC(F)(F)F)[C@@H](CCC(F)(F)F)C(=O)N[C@H]1N=C(c2ccccc2)c2ccccc2N(COC(=O)Cc2ccc(OP(=O)(O)O)cc2)C1=O` .
Output line: > 500 h

Input line: # query: half-life of entry `CC(C)[C@H](N)C(=O)OCN1C(=O)[C@@H](NC(=O)[C@H](CCC(F)(F)F)[C@H](CCC(F)(F)F)C(N)=O)N=C(c2ccccc2)c2ccccc21`
Output line: 41 h

* * *

- assay name: Thermodynamic Equilibrium Aqueous Solubility Assay
- Format: physicochemical
- condition summary: potassium phosphate buffer, pH 6.5, aqueous buffer, thermodynamic from solid; read-out: Solubility (mg/mL) pH 6.5
The threshold is inclusive: solubility at 24 h of exactly 0.6 mg/mL counts as 1.0; values below receive 0.0.

Worked set:
CC(C)[C@H](N)C(=O)OCN1C(=O)[C@@H](NC(=O)[C@H](CCC(F)(F)F)[C@H](CCC(F)(F)F)C(N)=O)N=C(c2ccccc2)c2ccccc21: 0.0
CN1C(=O)[C@@H](NC(=O)[C@H](CCC(F)(F)F)[C@H](CCC(F)(F)F)C(=O)NCN2CCC(N(C)C)CC2)N=C(c2ccccc2)c2ccccc21: 1.0
CN1C(=O)[C@@H](NC(=O)[C@H](CCC(F)(F)F)[C@H](CCC(F)(F)F)C(=O)NSC[C@H](N)C(=O)O)N=C(c2ccccc2)c2ccccc21: 1.0

Input line: Could you verify whether the entry `CN1C(=O)[C@@H](NC(=O)[C@H](CCC(F)(F)F)[C@H](CCC(F)(F)F)C(=O)NCN2CCC(O)CC2)N=C(c2ccccc2)c2ccccc21` shows solubility at 24 h of no less than 0.6 mg/mL?
Output line: 1.0

Input line: Could you please find out whether `NC(=O)[C@@H](CCC(F)(F)F)[C@@H](CCC(F)(F)F)C(=O)N[C@H]1N=C(c2ccccc2)c2ccccc2N(COC(=O)C2(N)CC2)C1=O` has solubility at 24 h that meets 0.6 mg/mL or exceeds it?
Output line: 1.0

Input line: Reported solubility at 24 h reaches at least 0.6 mg/mL for `CC(C)CNCNC(=O)[C@@H](CCC(F)(F)F)[C@@H](CCC(F)(F)F)C(=O)N[C@H]1N=C(c2ccccc2)c2ccccc2N(C)C1=O` ?
Output line: 0.0

Input line: Please indicate if the recorded solubility at 24 h for `CN1C(=O)[C@@H](NC(=O)[C@H](CCC(F)(F)F)[C@H](CCC(F)(F)F)C(=O)NCN2CCCCC2)N=C(c2ccccc2)c2ccccc21` meets or exceeds 0.6 mg/mL.
Output line: 0.0
